- system.tested: human PAD4 (Homo sapiens, UniProt Q9UM07)
- Construct: human PAD4 (NM_012387), A2P663, was PCR amplified; His-SUMO (N, cleaved yes)
- Sequence (Q9UM07 2-663): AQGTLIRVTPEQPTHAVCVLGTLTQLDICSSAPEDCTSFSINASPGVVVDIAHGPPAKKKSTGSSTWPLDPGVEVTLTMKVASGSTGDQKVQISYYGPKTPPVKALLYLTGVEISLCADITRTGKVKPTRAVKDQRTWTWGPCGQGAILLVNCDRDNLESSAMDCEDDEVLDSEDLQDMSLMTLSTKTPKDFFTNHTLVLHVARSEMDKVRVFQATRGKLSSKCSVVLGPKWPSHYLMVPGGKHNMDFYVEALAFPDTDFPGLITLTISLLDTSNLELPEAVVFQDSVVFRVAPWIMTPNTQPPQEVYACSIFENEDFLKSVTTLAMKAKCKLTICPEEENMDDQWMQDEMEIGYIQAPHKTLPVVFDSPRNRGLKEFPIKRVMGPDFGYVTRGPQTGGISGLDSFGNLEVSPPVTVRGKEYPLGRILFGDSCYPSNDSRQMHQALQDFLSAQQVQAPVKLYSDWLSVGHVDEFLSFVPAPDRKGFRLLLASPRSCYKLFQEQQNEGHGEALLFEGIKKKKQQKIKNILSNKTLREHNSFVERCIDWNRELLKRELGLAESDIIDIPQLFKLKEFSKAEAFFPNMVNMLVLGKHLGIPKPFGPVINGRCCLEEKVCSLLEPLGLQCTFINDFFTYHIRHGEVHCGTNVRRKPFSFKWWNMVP
- experiment.description: In vitro PAD4 BAEE biochemical assay
- condition.details: human PAD4, BAEE substrate; 5 nM PAD4, 2 mM calcium chloride, 3 mM BAEE; geometric mean of multiple experiments
measured.property: IC50 (nM)

[I] COc1cc(C(=O)N2CCC[C@@H](N)C2)cc2nc(-c3cc4ccc(O[C@@H](C)C(=O)NC56CC(F)(C5)C6)nc4n3CC3CC3)c(C)n12 [Example 631]
[II] COc1cc(C(=O)N2[C@H]3CC[C@@H]2[C@H](N)C3)cc2nc(-c3cc4ccc([C@@H](C)NC(=O)c5ccc(C#N)cc5)nc4n3CC3CC3)c(C)n12 [Example 123]
[III] COc1cc(C(=O)N2[C@H]3CC[C@@H]2[C@H](N)C3)cc2nc(-c3cc4ccc([C@@H](C)NC(=O)C56CC(c7ccccc7)(C5)C6)nc4n3CC3CC3)c(C)n12 [Example 147]
Lab note: order the above by reported IC50, lowest first, highest last. Give the labels in the order requested.
II, III, I
(II: 79 nM, III: 403 nM, I: 10000 nM)
